Reference source: patent US20190092852A1

# target_entity: T1, cyno IL-33 N-His (cynomolgus monkey)
# T1 chain: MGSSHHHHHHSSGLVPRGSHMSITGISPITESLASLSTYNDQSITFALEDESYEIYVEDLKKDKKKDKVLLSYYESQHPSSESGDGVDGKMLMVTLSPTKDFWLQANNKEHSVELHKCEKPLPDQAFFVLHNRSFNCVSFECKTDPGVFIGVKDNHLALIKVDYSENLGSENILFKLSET
# protocol_details: SPR Biacore T200, 25 C
Please provide measured kon for the entries that follow.
One number for each entry, in M⁻¹ s⁻¹.

binder	unit_abbrev	quantitative_result
H4H9665P (antibody, V domains shown) VH: EVQLVESGGGLVQPGGSLRLSCAASGFTFSNYAMTWVRQAPGKGLEWVSTISGSGDNTYYADSVQGRFTISRGHSKNTLYLQMNSLRAEDTAVYYCAKPTYSRSWYGAFDFWGQGTMVTVSS VL: DIQMTQSPSSVSASVGDRVTITCRASQGISSWLAWYQQKPGKAPQLLIYAASRLQSGVPSRFWGSGSGTDFTLTISSLQPEDFATYYCQQANNFPFTFGPGTKVDIK	M⁻¹ s⁻¹	437000
H4H9659P (antibody, IgG4, V domains shown, also called RG7) VH: QVQLVQSGAEVKKPGASVKVSCKASGYTFNSYGISWVRQAPGQGLEWMGWISSHNGNSHYVQKFQGRVSMTTDTSTSTAYMELRSLRSDDTAVYYCARHSYTTSWYGGFDYWGQGTLVTVSS VL: DIQMTQSPSSVSASVGDRVTITCRASQGFSSWLAWYQQKPGKAPQLLIYAASSLQSGVPSRFSGSGSGSDFTLTISSLQPEDFATYYCQQANSFPLTFGGGTKVEIK	M⁻¹ s⁻¹	183000
H4H9663P (antibody, V domains shown) VH: QVQLVQSGAEVKKPGASVKVSCKASGYTFTGHYMYWMRQAPGQGLEWMGWINPNSGGTNYAQKFQDRVTMTRDTSISTAYMELSRLRSDDTAVYYCARGRYGSSWYGGFEYWGQGTLVTVSS VL: DIQMTQSPSSVSASVGDRVTITCRASQGITSWLAWYQQKPGKAPNLLIYAAASLQSGVPSRFSGSGSGTDFTLTISSLQPEDFTTYYCQQAYSLPLTFGGGTKVEIK	M⁻¹ s⁻¹	511000
H4H9666P (antibody, V domains shown) VH: QVQLVQSGAEVKKPGASVKVSCKASGYTFTSYGISWVRQAPGQGLEWMGWIRAYNGYTNYAQKFQGRVTMTTDTSTNTAYMELRTLNSDDTAVYYCARDRYSGSFHGNFDYWGQGTLVTVSS VL: DIQMTQSPSSVSASVGDRVTITCRASQGIFSWLAWYQQKPGKAPKVLIYAASNLESGVPSRFSGSGSGTDFTLTISSLQPEDFATYYCQQANSLPLTFGGGTKVEIK	M⁻¹ s⁻¹	164000

Kindly review the next binder as well.
Please look at this binder and report its kon: H4H9629P (antibody, IgG4, V domains shown, also called RG4) VH: EVQLVESGGGLVQPGGSLRLSCAASGFTFRSFAMSWVRQAPGKGLELVSDLRTSGGSTYYADSVKGRLTISRDNSKNTLYLQMNSLRAEDTAVYYCAKSHYSTSWFGGFDYWGQGTLVTVSS VL: DIQMTQSPSSVSASVGDRVTITCRASQGFSSWLAWYQQKPGKAPKLLIYAASSLQSGVPSRFSGSGSGTDFTLTITNLQPEDFATYYCQQANSFPLTFGGGTKVEIK
379000
